- STUDY_TARGET: hMCHR (MCH receptor) (Homo sapiens, UniProt Q99705)
- Construct: (or internally produced); host or cells: CHO (Chinese hamster ovary) cells, membrane preparation
- Sequence (Q99705 whole entry): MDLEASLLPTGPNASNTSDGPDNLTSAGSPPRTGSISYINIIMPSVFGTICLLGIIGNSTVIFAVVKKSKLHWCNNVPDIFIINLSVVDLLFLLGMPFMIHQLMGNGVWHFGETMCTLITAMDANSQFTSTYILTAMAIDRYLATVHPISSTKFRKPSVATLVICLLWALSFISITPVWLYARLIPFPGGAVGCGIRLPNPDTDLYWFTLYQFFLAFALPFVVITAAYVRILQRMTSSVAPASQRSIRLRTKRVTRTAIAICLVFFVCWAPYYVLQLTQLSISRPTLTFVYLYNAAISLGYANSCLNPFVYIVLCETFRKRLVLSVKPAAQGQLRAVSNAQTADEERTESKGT
- EXPERIMENT_DESCRIPTION: MCH Assay PCOP Protocol ([125I]-MCH SPA binding to hMCHR-CHO membranes);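 for Activity (Ki range): A 0.4–50 nM B 51–500 nM C 501–2500 nM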
- MEASUREMENT_SETUP: [125I]-MCH binding to hMCHR-CHO membranes; class symbols for ranges of Ki; read-out: Activity (Ki range)
pKi: −log10 of the molar value.
Listing of recorded pKi by entry.

O=C(NCC(CCNC1CCCC1)c1ccc(Cl)cc1)Nc1cc(Cl)cc(Cl)c1 (stereo not shown) | 6.30 to 7.29
CCOC(=O)N1CCC(NCCC(CNC(=O)Nc2ccc(F)c(F)c2)c2ccc(Cl)c(Cl)c2)CC1 (stereo not shown) | 6.30 to 7.29
CN1CCCC1CCNCCC(CNC(=O)Nc1cccc(C(F)(F)F)c1)c1ccc(Cl)c(Cl)c1 (stereo not shown) | 5.60 to 6.30

Please examine the following record next.
Output measured pKi for this item: O=C(NCC(CCNCCc1c[nH]c2ccccc12)c1ccc(Cl)c(Cl)c1)Nc1cc(Cl)cc(Cl)c1 (stereo not shown)
5.60 to 6.30

* * *

- STUDY_TARGET: hMCHR (MCH receptor) (Homo sapiens)
- Construct: (or internally produced); host or cells: CHO (Chinese hamster ovary) cells, membrane preparation
- EXPERIMENT_DESCRIPTION: MCH Assay PCOP Protocol ([125I]-MCH SPA binding to hMCHR-CHO membranes);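 for Activity (Ki range): A 0.4–50 nM B 51–500 nM C 501–2500 nM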
- MEASUREMENT_SETUP: [125I]-MCH binding to hMCHR-CHO membranes; class symbols for ranges of Ki; read-out: Activity (Ki range)
- Protocol: A reaction mixture of 10 μg hMCHR-CHO overexpressing membranes (from Receptor Biology, Inc., Beltsville, Md., or internally produced) and 100 μg/well WGA-SPA beads (from Amersham Pharmacia Biotech, Inc., Piscataway, N.J.)/100 μl was prepared in MCHR assay buffer (25 mM HEPES, pH 7.4, 10 mM NaCl, 10 mM MgCl2, 5 mM MnCl2, 0.1% BSA). […]
pKi: −log10 of the molar value.
READOUT_NAME: pKi

Below, 2 molecules whose answers are already recorded.
CN(C)CCCNCCC(CNC(=O)Nc1cc(C(F)(F)F)cc(C(F)(F)F)c1)c1cccc(F)c1 (stereo not shown) | 5.60 to 6.30
CCNC(=O)NC1CCN(CCC(CNC(=O)Nc2cc(Cl)cc(Cl)c2)c2ccc(Cl)c(Cl)c2)C1 (stereo not shown) | 5.60 to 6.30

Output measured pKi for this item: O=C(NCC(CCN1CCC(N2CCCCC2)CC1)c1ccc(F)c(F)c1)Nc1ccc(Cl)c(Cl)c1 (stereo not shown)
5.60 to 6.30

Output measured pKi for this item: O=C(NCC(CCN1CCCC1)c1ccc(Cl)c(Cl)c1)c1cc(C(F)(F)F)cc(C(F)(F)F)c1 (stereo not shown)
5.60 to 6.30

Output measured pKi for this item: O=C(NCC(CCNCc1ccc2c(c1)OCO2)c1ccc(Cl)c(Cl)c1)Nc1cc(C(F)(F)F)cc(C(F)(F)F)c1 (stereo not shown)
5.60 to 6.30

Output measured pKi for this item: O=C(NCC(CCNC1CCCC1)c1ccc(-c2cccc(C(=O)O)c2)cc1)Nc1cc(Cl)cc(Cl)c1 (stereo not shown)
6.30 to 7.29

Output measured pKi for this item: O=C(NCC(CCNC1CCCC1)c1ccc(-c2ccc3c(c2)OCO3)cc1)Nc1cc(Cl)cc(Cl)c1 (stereo not shown)
6.30 to 7.29

* * *

Listing of recorded Ki by entry.
- STUDY_TARGET: hMCHR (MCH receptor) (Homo sapiens, UniProt Q99705)
- Construct: (or internally produced); host or cells: CHO (Chinese hamster ovary) cells, membrane preparation
- EXPERIMENT_DESCRIPTION: MCH Assay PCOP Protocol ([125I]-MCH SPA binding to hMCHR-CHO membranes);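 for Activity (Ki range): A 0.4–50 nM B 51–500 nM C 501–2500 nM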
- MEASUREMENT_SETUP: [125I]-MCH binding to hMCHR-CHO membranes; class symbols for ranges of Ki; read-out: Activity (Ki range)

Below, 3 compounds whose answers are already recorded.
Cn1cnc(CCNCCC(CNC(=O)Nc2cc(Cl)cc(Cl)c2)c2ccc(Cl)c(Cl)c2)c1 (stereo not drawn) [Example 297] | 501 to 2500 nM
O=C(NCc1cc(C(F)(F)F)cc(C(F)(F)F)c1)C(CCN1CCCCC1CO)c1ccc(Cl)c(Cl)c1 (stereo not drawn) [Example 383] | 501 to 2500 nM
O=C(NCC(CCNCCc1c[nH]c2ccccc12)c1ccc(Cl)c(Cl)c1)Nc1cc(C(F)(F)F)cc(C(F)(F)F)c1 (stereo not drawn) [Example 320] | 501 to 2500 nM

Output measured Ki for this item: CN(C)CCCNCCC(CNC(=O)Nc1cc(Cl)cc(Cl)c1)c1ccc(-c2ccc3c(c2)OCO3)cc1 (stereo not drawn) [Example 223]
0.4 to 50 nM

Output measured Ki for this item: O=C(NCC(CCN1CCCC1)c1cccc(F)c1)Nc1cc(C(F)(F)F)cc(C(F)(F)F)c1 (stereo not drawn) [Example 341]
501 to 2500 nM

Output measured Ki for this item: O=C(NCC(CCNCCc1c[nH]c2ccccc12)c1ccc(Cl)c(Cl)c1)c1cc(C(F)(F)F)cc(C(F)(F)F)c1 (stereo not drawn) [Example 400]
501 to 2500 nM

Output measured Ki for this item: O=C(NCc1ccc(F)c(F)c1)NCC(CCN1CCC(N2CCCCC2)CC1)c1ccc(Cl)c(Cl)c1 (stereo not drawn) [Example 258]
51 to 500 nM

Output measured Ki for this item: O=S(=O)(NCC(CCNCCc1c[nH]c2ccccc12)c1ccc(Cl)cc1)c1ccc(Cl)c(Cl)c1 (stereo not drawn) [Example 342]
501 to 2500 nM

Output measured Ki for this item: O=C(NCC(CCNC1CCC1)c1ccc(Cl)c(Cl)c1)Nc1ccc(F)c(F)c1 (stereo not drawn) [Example 265]
501 to 2500 nM

Output measured Ki for this item: O=C(NCc1cc(C(F)(F)F)cc(C(F)(F)F)c1)C(CCNCCc1c[nH]c2ccc(F)cc12)c1ccc(Cl)c(Cl)c1 (stereo not drawn) [Example 386]
501 to 2500 nM

Output measured Ki for this item: O=C(NCC(CCNCc1ccc2c(c1)OCO2)c1ccc(Cl)c(Cl)c1)Nc1ccc(F)c(Cl)c1 (stereo not drawn) [Example 261]
51 to 500 nM

* * *

- STUDY_TARGET: hMCHR (MCH receptor) (Homo sapiens, UniProt Q99705)
- Construct: (or internally produced); host or cells: CHO (Chinese hamster ovary) cells, membrane preparation
- EXPERIMENT_DESCRIPTION: MCH Assay PCOP Protocol ([125I]-MCH SPA binding to hMCHR-CHO membranes)
- MEASUREMENT_SETUP: [125I]-MCH 0.5 nM, hMCHR-CHO membranes; read-out: Activity (ranges of Ki values)
pKi: −log10 of the molar value.
Listing of recorded pKi by entry.

O=C(NCC(CCN1CCC(NC(=O)c2ccno2)C1)c1ccc(Cl)cc1)Nc1cc(Cl)cc(Cl)c1 (stereo not shown) [Example 193] | 6.30 to 7.29

Output measured pKi for this item: CN(C)CCCNCCC(CNC(=O)Nc1cc(Cl)cc(Cl)c1)c1cccc(-c2ccc(Cl)c(Cl)c2)c1 (stereo not shown) [Example 167]
5.60 to 6.30

Output measured pKi for this item: Cc1ccc(C(CCNC2CCCC2)CN2CCN(c3cc(Cl)cc(Cl)c3)C2=O)cc1 (stereo not shown) [Example 160]
6.30 to 7.29

Output measured pKi for this item: COc1cscc1C(=O)NC1CCN(CCC(CNC(=O)Nc2cc(Cl)cc(Cl)c2)c2ccc(Cl)cc2)CC1 (stereo not shown) [Example 201]
5.60 to 6.30

* * *

- STUDY_TARGET: hMCHR (MCH receptor) (Homo sapiens)
- Construct: (or internally produced); host or cells: CHO (Chinese hamster ovary) cells, membrane preparation
- EXPERIMENT_DESCRIPTION: MCH Assay PCOP Protocol ([125I]-MCH SPA binding to hMCHR-CHO membranes)
- MEASUREMENT_SETUP: [125I]-MCH 0.5 nM, hMCHR-CHO membranes; read-out: Activity (ranges of Ki values)
READOUT_NAME: Ki

Output measured Ki for this item: COCC(=O)NC1CCN(CCC(CNC(=O)Nc2cc(Cl)cc(Cl)c2)c2ccc(Cl)cc2)CC1 (stereo not shown)
51 to 500 nM

Output measured Ki for this item: CN(C)CCCNCCC(CNC(=O)Nc1cc(Cl)cc(Cl)c1)c1cccc(-c2ccc3c(c2)OCO3)c1 (stereo not shown)
501 to 2500 nM

Output measured Ki for this item: O=C(NCC(CCNC1CCCC1)c1cccc(-c2cccc(F)c2)c1)Nc1cc(Cl)cc(Cl)c1 (stereo not shown)
51 to 500 nM
